The following compounds are shown together with reported melting point values.
Measured property: melting point

INSERT INTO results (compound, measured_property, result) VALUES
  ('CCn1c(=O)c2[nH]c(/C=C/c3cc(OC)c(OC)cc3[N+](=O)[O-])nc2n(CC)c1=O', 'melting point', '284 °C'),
  ('COc1cc(C)c(C(=O)c2c(Cl)cnc(Cl)c2Cl)c(OC)c1OC', 'melting point', '60 to 61 °C'),
  ('O=C1C(CCO)Oc2ccc(Cl)cc2N1Cc1cccc(Cl)c1 (stereo not given)', 'melting point', '90 to 92 °C'),
  ('CCOC(=O)C(CCC#N)(C(=O)OCC)c1ncc(Br)cc1[N+](=O)[O-]', 'melting point', '58 to 62 °C'),
  ('C=CS(=O)CCNC(=O)CCS(=O)(=O)CCCl (stereo not given)', 'melting point', '108 to 109 °C'),
  ('Cc1nc2ccc3c(c2o1)C(CCNC(=O)C1CC1)CC3 (stereo not given)', 'melting point', '134 to 137 °C'),
  ('COc1cc(CCCC2SC(=O)NC2=O)ccc1OCc1csc(-c2ccccc2)n1 (stereo not given)', 'melting point', '123 to 124 °C'),
  ('CCOC(=O)/C(=N\O[C@H]1CC[C@H](Cl)CC1)c1csc(N)n1', 'melting point', '155 °C'),
  ('CCCCn1nc(C(C)=O)nc1Cc1ccc(-c2ccccc2-c2nnn[nH]2)nc1', 'melting point', '157 to 159 °C'),
  ('Nc1nc2ncn(O)c2c(=O)[nH]1', 'melting point', '> 300 °C'),
  ('CC(C)=CCCC(C)=CCCC(C)=CC=CC(C)=CC(=O)N(C)C', 'melting point', '39 to 39.5 °C'),
  ('CCCNC(=O)C1(CCCc2ccccc2N2Cc3ccccc3C2=O)c2ccccc2-c2ccccc21', 'melting point', '122 to 125 °C'),
  ('O=c1[nH]c2ccc(C3=NOC(CN4CCC(O)(Cc5ccc(F)cc5)CC4)C3)cc2o1 (stereo not given)', 'melting point', '195 to 204 °C'),
  ('CN1CCC(c2cccc3ccc(N)cc23)CC1', 'melting point', '170 to 171 °C'),
  ('COc1ccc2cc(-c3csc(Cc4c(Cl)cccc4Cl)n3)ccc2c1', 'melting point', '136 to 138 °C'),
  ('O=C(O)CC(=O)Nc1ccc2c(=O)[nH]c(=O)n(CCCCN3CCC(OC(c4ccccc4)c4ccccc4)CC3)c2c1', 'melting point', '230 to 232 °C'),
  ('CNC1=NS(=O)N=C1NCCSCc1ccc(CN(C)C)o1 (stereo not given)', 'melting point', '86 to 92 °C'),
  ('COc1ccc(-n2cc(C(F)(F)F)nc2-c2ccc(OC)nc2)cc1', 'melting point', '90 to 92 °C'),
  ('CCC1=NNC(C)=C(C(=O)OCc2ccco2)C1c1cccc([N+](=O)[O-])c1 (stereo not given)', 'melting point', '152 °C'),
  ('COc1ccnc(CCc2nc3cc(-c4ccc(S(=O)(=O)Nc5ccc(N(C)C)cc5)cc4)cnc3[nH]2)c1', 'melting point', '221 to 222 °C'),
  ('CCCCC(C(=O)OCC)c1ccc(N2Cc3ccccc3C2=N)cc1 (stereo not given)', 'melting point', '140 to 142 °C'),
  ('COC1=C(OC)C(=O)C(CCCCCCCCCCCCOC(C)=O)=C(C)C1=O', 'melting point', '47 °C'),
  ('CCn1ncc2c1ncc1c(=O)n(CCN3CCOCC3)c3cc(C)nn3c12', 'melting point', '140 to 141 °C'),
  ('S=C(N/N=C/c1cccnc1)Nc1ccccc1', 'melting point', '208 to 210 °C'),
  ('CC(C)(C)OC(=O)N1CCn2c(c(C(N)=O)c(C#N)c2C2CCN(C(=O)OCc3ccccc3)CC2)C1', 'melting point', '90 °C'),
  ('C=CC(C)(C)C(O)(COc1ccc(-c2ccccc2)cc1)Cn1cnnc1 (stereo not given)', 'melting point', '171 to 173 °C'),
  ('COc1cccc(-c2nc3n(n2)CCc2ccccc2-3)c1', 'melting point', '94 to 96 °C'),
  ('CCCCC1=CC(O)(C(Br)Br)N(c2ccccc2)C1=O (stereo not given)', 'melting point', '96 to 98 °C'),
  ('CN(C)c1ccc(C=C2C=C(C(C)(C)C)C(=O)C(C(C)(C)C)=C2)cc1', 'melting point', '175 °C'),
  ('CC(=O)C(C)c1ccc2c(c1)Cc1cccnc1O2 (stereo not given)', 'melting point', '136 °C'),
  ('CCCc1c(C(=O)C(C)C)c2ccc(C(N)=O)cc2n1Cc1ccccc1OC', 'melting point', '174 to 175 °C'),
  ('COc1cc2ccc3c4cc(OC)c(OC)cc4ncc3c2cc1OC', 'melting point', '122 to 124 °C'),
  ('O=C(O)c1noc(-c2cnccc2C(F)(F)F)n1', 'melting point', '157 to 159 °C'),
  ('O=C(O)c1csnc1-c1ccc(Cl)c(Cl)c1', 'melting point', '247 to 248 °C'),
  ('COc1cccc(CC(=O)O)c1OCCCCc1cn(-c2ccc(C(F)(F)F)cn2)nc1C(C)C', 'melting point', '144 to 145 °C'),
  ('CCOC(=O)CC(=O)c1cc(F)c(F)cc1F', 'melting point', '57 to 59 °C'),
  ('COc1ccc(-n2nc3c(cc2=O)CCSc2sc(Br)cc2-3)cc1', 'melting point', '148 to 150 °C'),
  ('Oc1ccc(-c2cnc(S)o2)cc1O', 'melting point', '215 to 218 °C'),
  ('CS(=O)(=O)c1ncc2cc(Oc3ccccc3F)c(=O)n(-c3ccc(F)cc3)c2n1', 'melting point', '82.3 to 91.5 °C'),
  ('Cn1c(CCc2ccc(C#N)cc2)nc2cc(NS(=O)(=O)c3ccccc3)ccc21', 'melting point', '222 to 225 °C');
